# reported efficacy; entries follow
# Test system: HCT116
# experiment.notes: efficacy (maximum % inhibition of viability vs DMSO); higher = more cytotoxic
# condition.parameters: 72 h; ICRF193 0 nM
Counter-ions that a name gives are not always drawn.

Known efficacy results, listed for orientation:
CC1=NN(c2ccc(C)c(C)c2)C(=O)/C1=N\Nc1cccc(-c2cccc(C(=O)O)c2)c1O
41.9%
CCCCC[C@H](O)/C=C/[C@H]1[C@H](O)CC(=O)[C@@H]1C/C=C\CCCC(=O)O [Prostaglandin E2]
68.9%
COc1cc2c(cc1Cc1cccc(Cl)c1F)c(=O)c(C(=O)O)cn2[C@H](CO)C(C)C
71.8%
CC(C)C[C@H](NC(=O)CNC(=O)c1cc(Cl)ccc1Cl)B1OC(=O)C(CC(=O)O)(CC(=O)O)O1
96.2%
O=c1[nH]c2ccccc2n1CCCN1CCN(C(c2ccccc2)c2ccccc2)CC1 [Oxatomide]
73.2%
Cc1cc(-n2c(=O)[nH]c(=O)n(C)c2=O)ccc1Oc1ccc(S(=O)(=O)C(F)(F)F)cc1 [Toltrazuril (sulfone)]
44.9%

Which efficacy value is on record for CCCCc1oc2ccc(NS(C)(=O)=O)cc2c1C(=O)c1ccc(OCCCN(CCCC)CCCC)cc1 [Dronedarone hydrochloride] ?
115%

---

# System: HCT116
# condition.parameters: 72 h; ICRF193 0 nM
Below, each entry is listed alongside its reported IC50 cell viability.

Solved cases below.
Fc1cccc(Br)c1NC1=NCCN1 [ROMIFIDINE]
> 45.8 µM
CC/C(=C(/CC)c1ccc(OP(=O)(O)O)cc1)c1ccc(OP(=O)(O)O)cc1 [Fosfestrol tetrasodium]
> 45.8 µM
CCOC(=O)c1ccc(N)cc1 [Benzocaine]
> 45.8 µM

Let us examine a further case.
Would you kindly share the measured IC50 cell viability for CCOc1cc2ncc(C#N)c(Nc3ccc(OCc4ccccn4)c(Cl)c3)c2cc1NC(=O)/C=C/CN(C)C [Neratinib] ?
> 45.8 µM

---

# Tested on: HCT116
# condition.parameters: 72 h; ICRF193 0 nM
Counter-ions that a name gives are not always drawn.
IC50 cell viability by entry:

Please review the entries below; each comes with its answer.
CCC(=O)c1ccc2c(c1)N(CCCN(C)C)c1ccccc1S2 [Propionylpromazine hydrochloride]
> 45.8 µM
O=C(CCCCCCC(=O)Nc1ccccc1)NO [Vorinostat (SAHA)]
3.66 µM
CCC1(c2cccc(O)c2)CCCCN(C)C1 (stereo not drawn) [Meptazinol hydrochloride]
> 45.8 µM
Nc1c2ccccc2nc2ccccc12 [9-Aminoacridine, monohydrochloride, monohydrate]
23.1 µM
CC(C)=CCC1C(=O)N(c2ccccc2)N(c2ccccc2)C1=O [Feprazone]
> 45.8 µM

Any idea what IC50 cell viability was measured for CCN(CC)Cc1nccn1-c1ccc([N+](=O)[O-])cc1C(=O)c1ccccc1Cl [Nizofenone] ?
> 45.8 µM

Consider next the compound O=C1c2c(O)cccc2Cc2cccc(O)c21 [Anthralin] in the same way.
> 45.8 µM

Further, for C[C@]12CC[C@H](O)CC1=CC[C@@H]1[C@@H]2CC[C@]2(C)C(=O)CC[C@@H]12 [Dehydroepiandrosterone] ?
> 45.8 µM

Consider next the compound Cc1ccc(NC(=O)c2ccc(CN3CCN(C)CC3)cc2)cc1Nc1nc(-c2cccnc2)cs1 [Masitinib] in the same way.
11.6 µM

// query: O=C(O)Cc1ccccc1Nc1c(Cl)cccc1Cl [Diclofenac sodium]
> 45.8 µM
